Target: AKT1 E17K (Homo sapiens (Human), UniProt P31749, E17K)
Sequence (P31749 whole entry E17K): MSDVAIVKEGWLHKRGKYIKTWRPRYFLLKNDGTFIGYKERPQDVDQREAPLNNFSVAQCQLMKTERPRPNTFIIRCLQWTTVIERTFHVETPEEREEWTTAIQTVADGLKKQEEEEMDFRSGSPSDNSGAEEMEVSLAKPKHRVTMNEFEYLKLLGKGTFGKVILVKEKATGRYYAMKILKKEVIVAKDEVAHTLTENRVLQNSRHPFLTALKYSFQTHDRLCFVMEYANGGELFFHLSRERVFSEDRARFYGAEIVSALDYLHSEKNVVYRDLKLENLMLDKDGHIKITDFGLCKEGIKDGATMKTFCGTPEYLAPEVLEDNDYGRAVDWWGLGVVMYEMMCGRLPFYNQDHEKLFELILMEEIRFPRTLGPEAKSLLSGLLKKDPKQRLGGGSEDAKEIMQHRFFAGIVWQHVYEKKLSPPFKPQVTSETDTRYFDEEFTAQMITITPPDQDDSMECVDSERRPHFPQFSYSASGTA
Experiment: Live cell target engagement (NanoBRET) in HEK293 cells
Format: cell-based
measuredMetric: AKT1 E17K IC50: Selectivity vs AKT2
The answer should be written as a number, with no unit following it.

- smilesStructure: "Nc1ncccc1-c1nc2ccc(C3CC3)nc2n1-c1ccc(CNC(=O)Cc2ccc(C=O)c(O)c2)cc1"
  measuredNumber: 830
- smilesStructure: "COc1ccc2nc(-c3cccnc3N)n(-c3ccc(CNC(=O)Cc4ccc(C=O)c(O)c4)cc3)c2n1"
  measuredNumber: 400
- smilesStructure: "Nc1ncccc1-c1nc2ccc(-c3cccc(N4CCOCC4)c3)nc2n1-c1ccc(CCNCc2ccc(C=O)c(O)c2)cc1"
  measuredNumber: 4.9

Would you kindly share the measured AKT1 E17K IC50: Selectivity vs AKT2 for Nc1ncccc1-c1nc2ccc(NC3CC3)nc2n1-c1ccc(CNC(=O)Cc2ccc(C=O)c(O)c2)cc1 ?
120

Would you kindly share the measured AKT1 E17K IC50: Selectivity vs AKT2 for Nc1ncccc1-c1nc2ccc(-c3ccccc3F)nc2n1-c1ccc(CNC(=O)Cc2ccc(C=O)c(O)c2)cc1 ?
64

Would you kindly share the measured AKT1 E17K IC50: Selectivity vs AKT2 for Nc1ncccc1-c1nc2ccc(-c3ccccc3)nc2n1-c1ccc(CNCCc2cc(O)c(C=O)c(F)c2)cc1 ?
2.2
